test: Toxicity in fertilized chicken embryo assessed as mortality rate at 1 ug per egg, iv administered on day 11 measured on day 17 by CAM assay; type: organism-based, Gallus gallus; conditions: in vivo, read-out: Activity
quantity.measured: mortality at 6 days (%)
Lab book: enter the figure in %, no units written.

Form field mortality at 6 days, entry COc1ccc(/C=C\c2cc(OC)c(OC)c(OC)c2)cc1O [COMBRETASTATIN A4] : 21

---

assay: Toxicity in fertilized chicken embryo assessed as mortality rate at 30 ug per egg, iv administered on day 11 measured on day 17 by CAM assay; format: organism-based, Gallus gallus; details: in vivo, read-out: Activity
quantity.measured: mortality at 6 days (%)
Lab book: enter the figure in %, no units written.

{"structure.notation": "CCNC(=O)Nc1ccc(S(=O)(=O)Oc2ccccc2CC)cc1", "unit.tag": "%", "mortality at 6 days": 9}

Form field mortality at 6 days, entry O=C(NCCCl)Nc1ccc(S(=O)(=O)Oc2ccc(O)cc2)cc1 : 15

Form field mortality at 6 days, entry CCCc1ccccc1OS(=O)(=O)c1ccc(NC(=O)NCC)cc1 : 10

Form field mortality at 6 days, entry CCNC(=O)Nc1ccc(S(=O)(=O)Oc2ccccc2C)cc1 : 9

Form field mortality at 6 days, entry CCc1ccccc1OS(=O)(=O)c1ccc(NC(=O)NCCCCl)cc1 : 0
